Parameter: composite z-score. Scope: all listed entries.
molecular target: Torsin-1A (Homo sapiens) (UniProt O14656); assay: torsin A binders from cell lysate, primary screen, small-molecule microarray, wild-type, 635/667 nm (AID 1149); details: COS7 hTOR1A-WT lysate, 635 nm fluorescence, higher = more signal
Sequence (O14656 whole entry, looked up): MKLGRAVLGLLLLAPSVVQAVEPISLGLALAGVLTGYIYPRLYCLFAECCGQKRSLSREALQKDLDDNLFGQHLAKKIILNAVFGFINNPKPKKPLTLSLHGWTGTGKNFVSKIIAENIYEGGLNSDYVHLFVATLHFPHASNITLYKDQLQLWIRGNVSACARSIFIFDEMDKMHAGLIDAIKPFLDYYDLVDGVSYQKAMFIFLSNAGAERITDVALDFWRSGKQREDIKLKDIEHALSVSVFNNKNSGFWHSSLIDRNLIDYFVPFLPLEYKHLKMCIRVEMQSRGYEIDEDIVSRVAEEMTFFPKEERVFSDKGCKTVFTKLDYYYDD

molecule	reported.measurement
CCCCN1CC=CC23O[C@@H]4/C=C\CCCOC(=O)C4[C@H]2C(=O)N(CCCCCCO)[C@@H]3C1=O (stereo partly specified)	-1.63
CC(C)N1CC=CC23O[C@@H]4/C=C\CCCOC(=O)C4[C@H]2C(=O)N(C(C)CO)[C@@H]3C1=O (stereo partly specified)	-2.23
C[C@H]1C2[C@H](Cc3ccccc3)NC(=O)[C@]23C(=O)N[C@@H](Cc2ccccc2)C(=O)N2CCC[C@H]2C(=O)NC/C=C/CC/C=C/C3[C@@H]2O[C@]12C (stereo partly specified)	-0.0723
CC(C)C[C@@H]1NC(=O)[C@H]2C[C@@H](C(=O)O)[C@@H](c3cccc(OCCO)c3)N2C1=O	0.994
COC(=O)C(CC#Cc1ccc2c(c1)[C@]1(C(=O)N2)[C@H](C(=O)N2CCN(c3ncccn3)CC2)[C@H]2C(=O)O[C@H](c3ccccc3)[C@H](c3ccccc3)N2[C@@H]1c1ccc(O)cc1)C(=O)OC	0.662

Now look at this one.
Inquiry: Give the value of composite z-score reported for the following: `CCOC(=O)C[C@H]1[C@H](OC(=O)c2ccccc2-c2ccccc2)[C@@H](NC(=O)CC(C)C)c2cc(OCCCO)ccc2N1C(=O)c1ccccc1`
Reply text: -0.278
